All figures here come from patent US20250340623A1.

- TARGET OR TEST SYSTEM: monomeric alpha-synuclein (UniProt P37840 1-140)
- ASSAY DETAILS: SPR, captured mAb
PROPERTY: kon (M⁻¹ s⁻¹)
Give the number; M⁻¹ s⁻¹ is assumed, so skip it.

ACI-8032-6307F1-Ab2 (antibody, V domains shown, mouse hybridoma mAb; VH/VL only; also called 6307F1H10) VH: QVQLQQSGAELARPGASVKLSCKASGYTFTSYGMSWVKQRTGQGLEWIGEIYPRSGNTYYNEKFKGKATLTSDKSSSTSYMELRSLTSEDSAVYFCASESYYGDYAWYFDVWGTGTTVTVSS VL: DVLMTQTPLSLPVSLGDQASISCRSSQSVVHSNGITYLEWYLQKPGQSPKLLIYKVSNRFSGVPDRFSGSGSGTYFTLKISRVEAEDLGVYYCFQGSHVPPTFGGGTKLEIK	1.3e+06

Attention now shifts to the item below.
Q: Given the binder ACI-7079-3101E3-Ab1 (antibody, V domains shown, mouse hybridoma mAb; VH/VL only; also called 3101E3C9) VH: QVQLKESGPGLVAPSQSLSITCTVSGFSLTRYIINWVRQPPGKGLEWLGVIWTGGGTDYNSALKSRLSISKDNSKSQVFLKMNSLQTDDTARYYCAREYGYDGAWFAYWGQGTLVTVSA VL: DVLMTQTPLSLPVSLGDQASISCRSSQTIVHSNGNTYLEWYLQKPGQSPKLLIYKVSNRFSGVPDRFSGSGSGTDFTLKISRVEAEDLGVYYCFQGSHVPYTFGGGTKLEIK , what is its reported kon?
Result: 190000
